Kindly state IC50 for each of the entries shown.
- assayedSystem: B1 receptors (Oryctolagus cuniculus, UniProt P48748)
- Construct: The thorax was opened and the thoracic aorta carefully removed; from tissue; host or cells: rabbit thoracic aorta spiral strips
- Sequence (P48748 whole entry): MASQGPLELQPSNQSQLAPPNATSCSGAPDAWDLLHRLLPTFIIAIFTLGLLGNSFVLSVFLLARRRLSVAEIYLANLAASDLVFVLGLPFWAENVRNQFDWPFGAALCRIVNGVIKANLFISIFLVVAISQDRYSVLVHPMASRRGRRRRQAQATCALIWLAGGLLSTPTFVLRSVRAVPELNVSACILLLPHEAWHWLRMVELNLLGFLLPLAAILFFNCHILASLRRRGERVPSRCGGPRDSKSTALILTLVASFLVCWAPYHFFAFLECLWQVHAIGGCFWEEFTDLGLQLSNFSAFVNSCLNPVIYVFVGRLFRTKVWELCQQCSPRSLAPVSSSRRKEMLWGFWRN
- assayProtocol: B1 receptor bioassay, rabbit aorta strips contracted with des-Arg9-BK
- Type: cell-based
- conditionsUsed: 50% reduction of sustained contraction to 10^-7 M des-Arg9-BK; read-out: Rabbit Aorta p IC50 B1 receptors (converted)

Give recorded IC50. `N=C(N)NCCC[C@@H](N)C(=O)N[C@@H](CCCNC(=N)N)C(=O)N1CCC[C@H]1C(=O)N1C[C@H](O)C[C@H]1C(=O)NCC(=O)N[C@@H](C(=O)N[C@@H](CO)C(=O)N[C@@H](C(=O)N1[C@H](C(=O)N[C@@H](CCCNC(=N)N)C(=O)O)C[C@@H]2CCCC[C@@H]21)C1Cc2ccccc2C1)C1Cc2ccccc2C1`
> 10 µM

Indicate the recorded IC50 value for this molecule: `N=C(N)NCCC[C@@H](N)C(=O)N[C@@H](CCCNC(=N)N)C(=O)N1CCC[C@H]1C(=O)N1C[C@H](O)C[C@H]1C(=O)NCC(=O)N[C@H](Cc1cccs1)C(=O)N[C@@H](CO)C(=O)N[C@@H](C(=O)N1[C@H](C(=O)N[C@@H](CCCNC(=N)N)C(=O)O)C[C@@H]2CCCC[C@@H]21)C1Cc2ccccc2C1`
> 10 µM

Consider the molecule `Cc1ccc(C[C@@H](NC(=O)CNC(=O)[C@@H]2C[C@@H](O)CN2C(=O)[C@@H]2CCCN2C(=O)[C@H](CCCNC(=N)N)NC(=O)[C@H](N)CCCNC(=N)N)C(=O)N[C@@H](CO)C(=O)N[C@@H](C(=O)N2[C@H](C(=O)N[C@@H](CCCNC(=N)N)C(=O)O)C[C@@H]3CCCC[C@@H]32)C2Cc3ccccc3C2)c(C)c1` . State its measured IC50.
> 10 µM
